Test system: HCT-116
Protocol details: Cytotoxicity against human HCT116 cells after 72 hrs by MTT assay
Assay type: functional, cell-based
Condition notes: HCT-116, 72 h
Reported pIC50 is given for each of the following compounds.
Note on units: pIC50 is unitless, being -log10 of a concentration expressed in mol/L.

Solved entries (count: 10):
{"columns": ["Compound", "Tgt", "pIC50"],
 "data": [
  ["O=C1c2ccccc2SC2c3[nH]c4ccc(O)cc4c3CCN12 (configuration not stated)", "HCT-116", 7.40],
  ["Cc1ccc2c(c1)OC1c3[nH]c4ccccc4c3CCN1C2=S (configuration not stated)", "HCT-116", 4.35],
  ["Nc1ccc2c(c1)C(=O)N1CCc3c([nH]c4ccc(O)cc34)C1O2 (configuration not stated)", "HCT-116", 6.30],
  ["COc1ccc2[nH]c3c(c2c1)CCN1C(=O)c2cc(Cl)ccc2SC31 (configuration not stated)", "HCT-116", 5.57],
  ["O=C1c2cccc(O)c2OC2c3[nH]c4ccc(O)cc4c3CCN12 (configuration not stated)", "HCT-116", 4.27],
  ["O=C1c2cc(Cl)cc(Cl)c2OC2c3[nH]c4ccccc4c3CCN12 (configuration not stated)", "HCT-116", 5.17],
  ["COc1ccc2[nH]c3c(c2c1)CCN1C(=O)c2cc(Cl)ccc2OC31 (configuration not stated)", "HCT-116", 6.00],
  ["CC(C)C(=O)Nc1ccc2c(c1)C(=O)N1CCc3c([nH]c4ccccc34)C1O2 (configuration not stated)", "HCT-116", 5.03],
  ["COc1ccc2[nH]c3c(c2c1)CCN1C(=O)c2cc4ccccc4cc2OC31 (configuration not stated)", "HCT-116", 4.24],
  ["CN1c2ccsc2C(=O)N2CCc3c([nH]c4ccccc34)C21 (configuration not stated)", "HCT-116", 3.72]
]}

Lookup result for COc1ccc2[nH]c3c(c2c1)CCN1C(=O)c2c(ccn2C)N(C)C31 (configuration not stated) ; measured pIC50: 4.27

---

Reported IC50 is given for each of the following compounds.
Test system: HCT-116
Protocol details: Cytotoxicity against human HCT116 cells after 72 hrs by MTT assay
Type: functional, cell-based
Condition notes: HCT-116, 72 h
A number alone suffices; assume µM.

{"columns": ["Compound", "IC50 [µM]"],
 "data": [
  ["CCCNc1ccc2c(c1)C(=O)N1CCc3c([nH]c4ccccc34)C1O2 (centres undefined)", 16.7]
]}

Lookup result for S=C1c2ccccc2OC2c3[nH]c4ccccc4c3CCN12 (centres undefined) ; measured IC50: 5.6

Lookup result for CC(=O)Nc1ccc2c(c1)C(=O)N1CCc3c([nH]c4ccccc34)C1O2 (centres undefined) ; measured IC50: 5.8

Lookup result for O=C1c2ccc(C(F)(F)F)cc2OC2c3[nH]c4ccccc4c3CCN12 (centres undefined) ; measured IC50: 23.3

Lookup result for CN1c2ccn(C)c2C(=O)N2CCc3c([nH]c4ccccc34)C21 (centres undefined) ; measured IC50: 76.5

Lookup result for CCNc1ccc2c(c1)C(=O)N1CCc3c([nH]c4ccccc34)C1O2 (centres undefined) ; measured IC50: 39.4

Lookup result for O=C1c2ccc(C(F)(F)F)cc2OC2c3[nH]c4ccc(O)cc4c3CCN12 (centres undefined) ; measured IC50: 10.9

Lookup result for O=C1c2ccccc2OC2c3[nH]c4ccc(O)cc4c3CCN12 (centres undefined) ; measured IC50: 2.3

Lookup result for COc1ccc2c(c1)C(=O)N1CCc3c([nH]c4ccc(OC)cc34)C1S2 (centres undefined) ; measured IC50: 20

Lookup result for O=C1c2ccccc2OC2c3[nH]c4ccc(Cl)cc4c3CCN12 (centres undefined) ; measured IC50: 2.1

Lookup result for O=C1c2c(ccc3ccccc23)OC2c3[nH]c4ccc(O)cc4c3CCN12 (centres undefined) ; measured IC50: 6.3

Lookup result for Nc1ccc2c(c1)C(=O)N1CCc3c([nH]c4ccccc34)C1O2 (centres undefined) ; measured IC50: 2.3

Lookup result for O=C1c2ccccc2OC2c3[nH]c4ccccc4c3CCN12 (centres undefined) ; measured IC50: 3.1
